Reference source: the METLIN SMRT retention time set (Domingo-Almenara et al. 2019)

Assay: gradient 5% acetonitrile 3 min, to 50% in 2 min, to 85% in 15 min, held 3 min, 100 µL/min
Conditions: column: Zorbax Extend-C18 2.1 x 50 mm; eluents: water / acetonitrile, 0.1% formic acid
Listed compounds paired with reported RP-LC retention time
The response must be a number in s with no trailing unit.

| compound | observed-result |
| --- | --- |
| CC(=O)N1CCc2ccccc2C1C(=O)NCc1ccc(F)cc1 (stereo unspecified) | 762 |
| CC(CCc1ccccc1)NC(=O)C1CCN(c2cc(Oc3ccccc3)ncn2)CC1 (stereo unspecified) | 998 |
| CCCn1c(=O)sc2cc(S(=O)(=O)N3CCC(C(=O)Nc4cccc(OC)c4)CC3)ccc21 | 978 |

Query: Which RP-LC retention time is listed for Cc1ccccc1-c1ccc(N2CCCC(C(=O)NC(C)CCc3ccccc3)C2)nn1 (stereo unspecified) ?
Reply: 817

Query: Form field: reported RP-LC retention time of COCCn1ccc2nc(C)c(C(=O)NCCc3c[nH]c4ccccc34)cc2c1=O
Reply: 767

Query: Quick one: RP-LC retention time for O=C(c1ccccc1Cl)N1CC2CC(C1)c1cccc(=O)n1C2 (stereo unspecified) ?
Reply: 596
